Target: Proteinase-activated receptor 2 (Homo sapiens)
Sequence (P55085 whole entry): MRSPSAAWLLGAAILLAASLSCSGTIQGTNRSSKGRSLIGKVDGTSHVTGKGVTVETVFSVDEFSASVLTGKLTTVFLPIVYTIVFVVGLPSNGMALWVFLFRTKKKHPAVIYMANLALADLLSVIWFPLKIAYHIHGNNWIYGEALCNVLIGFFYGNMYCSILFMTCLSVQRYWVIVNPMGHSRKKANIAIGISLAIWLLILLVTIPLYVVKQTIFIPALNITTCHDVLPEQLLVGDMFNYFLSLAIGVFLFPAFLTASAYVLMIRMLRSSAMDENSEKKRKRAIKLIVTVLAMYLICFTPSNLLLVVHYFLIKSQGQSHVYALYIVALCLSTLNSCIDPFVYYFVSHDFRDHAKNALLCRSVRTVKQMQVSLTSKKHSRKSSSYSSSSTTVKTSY
Experiment: Agonist activity at PAR2 expressed in human HT29 cells assessed as intracellular calcium release
Numbered stars: 1 amine (or outer) side, 2 acyl side, 3 side chain; on linkers, the order of the positions; unused ones are H or OH. Square brackets hold non-standard residues; d marks the D form. Peptide text beside a SMILES is read from it. X2 = CCOP(=O)(Cc1ccc(C[C@H](N[*:1])C(=O)[*:2])cc1)OCC; Phe(4-F) = N[C@@H](Cc1ccc(F)cc1)C(=O)O; Phe(4-I) = N[C@@H](Cc1ccc(I)cc1)C(=O)O
recorded-endpoint: EC50 (nM)

molecule	study-target	EC50 [nM]
CC[C@H](C)[C@H](NC(=O)[C@H](CC(C)C)NC(=O)[C@@H](N)CO)C(=O)NCC(=O)N[C@@H](CCCNC(=N)N)C(=O)N[C@@H](CC(C)C)C(=O)N[C@@H](Cc1ccc(F)cc1)C(N)=O (H-SLIGRL[Phe(4-F)]-NH2)	Proteinase-activated receptor 2 (Homo sapiens)	2000
CCOP(=O)(Cc1ccc(C[C@H](NC(=O)[C@H](CCCNC(=N)N)NC(=O)CNC(=O)[C@@H](NC(=O)[C@H](CC(C)C)NC(=O)[C@@H](N)CO)[C@@H](C)CC)C(=O)N[C@H](C(N)=O)[C@@H](C)CC)cc1)OCC (H-SLIGR[X2]I-NH2)	Proteinase-activated receptor 2 (Homo sapiens)	1300

1. CC[C@H](C)[C@H](NC(=O)[C@H](Cc1ccc(I)cc1)NC(=O)[C@H](CCCNC(=N)N)NC(=O)CNC(=O)[C@@H](NC(=O)[C@H](CC(C)C)NC(=O)[C@@H](N)CO)[C@@H](C)CC)C(N)=O (H-SLIGR[Phe(4-I)]I-NH2)
2. CC[C@H](C)[C@H](NC(=O)[C@H](COc1ccc([N+](=O)[O-])cc1)NC(=O)[C@H](CCCNC(=N)N)NC(=O)CNC(=O)[C@@H](NC(=O)[C@H](CC(C)C)NC(=O)[C@@H](N)CO)[C@@H](C)CC)C(N)=O
Please indicate which item has the smaller measured EC50: 1 versus 2 Your choice should be expressed through its label. 1
(1: 600 nM, 2: 2800 nM)
